mass density for assorted compounds
- Run Conditions: 298.15 K; 101.33 kPa; Liquid; Pycnometric method

>  <Molecule>
CCCCCCCCCCCCCC

>  <mass density, kg/m3>
759.19

$$$$
>  <Molecule>
CCCCCCCCCC

>  <mass density, kg/m3>
726.47

$$$$
>  <Molecule>
Cc1ccccc1

>  <mass density, kg/m3>
862.346

$$$$
>  <Molecule>
CCCCCCC

>  <mass density, kg/m3>
679.71

$$$$
>  <Molecule>
CCCCCCCC

>  <mass density, kg/m3>
698.75

$$$$
>  <Molecule>
CNc1ccccc1

>  <mass density, kg/m3>
982.237

$$$$
>  <Molecule>
CCCCCCCCCCCCCCCC

>  <mass density, kg/m3>
769.91

$$$$
>  <Molecule>
C1CCCCC1

>  <mass density, kg/m3>
773.96

$$$$
